System: SK-OV-3 ovarian
runDescription: NCI tumour cell line growth inhibition, 48 h; in the data active = GI50 below about 0.43 µM; inactive = the rest
Response enum: active, inactive

Worked examples follow.
• C=CC(C)(O)CC/C=C(\CO)C(=O)OC1C(C)OC(O[C@](C)(C=C)CC/C=C(\CO)C(=O)O[C@H]2C[C@@]3(C(=O)OC4OC(CO)C(O)C(O)C4OC4OC(C)C(OC5OC(CO)C(O)C5O)C(OC5OC(CO)C(O)C(O)C5O)C4O)C(CC2(C)C)C2=CCC4[C@@]5(C)CC[C@H](OC6OC(COC7OC(C)C(O)C(O)C7OC7OCC(O)C(O)C7O)C(O)C(O)C6NC(C)=O)C(C)(C)C5CC[C@@]4(C)[C@]2(C)C[C@H]3O)C(O)C1O (stereo partly drawn) = active
• COc1cc(Cn2c(-c3ccccc3)cc3c2-c2oncc2CC3)cc(OC)c1 = active

Moving on to the next compound.
Ask: Please indicate how the test categorized CC(=O)[C-](C(C)=O)c1ccccc1.CC(=O)[C-](C(C)=O)c1ccccc1.CC(=O)[C-](C(C)=O)c1ccccc1.[Cl-].[Zr+4] .
Reply: inactive

* * *

Test system: NCI-H522 lung
runDescription: NCI tumour cell line growth inhibition, 48 h
Here the recorded TGI is given for each entry.
Answer format: numeric, µM implied, no suffix.

Examples with their reported TGI follow.
* COc1cc2c3c(cc(Cl)nc3c1OC)C(O)(CC(=O)c1ccccc1)C(=O)N2 (configuration not stated) | 8.93
* CCCCNC1=C(C(=O)OCC)/C(=N/NC(=O)c2ccccc2O)CO1 | 57.8

Let us examine a further case.
Ask: Which TGI is listed for CN/N=C(\C(=O)Nc1ccc(C)c(C)c1)C(C(=O)OC)c1nc2ccc([N+](=O)[O-])cc2[nH]c1=O (configuration not stated) ?
Reply: 70.9

* * *

Here the recorded TGI is given for each entry.
System: OVCAR-4 ovarian
runDescription: NCI tumour cell line growth inhibition, 48 h

Examples with their reported TGI follow.
- CC1=C(N2CC2)C(=O)c2ccccc2C1=O: 7.36 µM
- CCOC(=O)CC(NC(=O)c1ccc(N=NN(C)C)cc1)C(=O)OCC (stereo unspecified): > 100 µM
- CC(C)=NOC(=O)Nc1cccc2c1OCO2: > 100 µM
- N#CC(C(=O)CCCC(=O)Nc1ccc(Cl)cc1Cl)c1ccc(Cl)cc1 (stereo unspecified): > 100 µM
- CC(C)c1ccc(/C=C2\CSCC3=C2N=C2SCC(=O)N2C3c2ccc(C(C)C)cc2)cc1 (stereo unspecified): > 100 µM

Ask: # value lookup — system OVCAR-4 ovarian, readout TGI, item CCN(CC)Cc1cc(Nc2c3ccccc3nc3cc(Cl)ccc23)ccc1O
Reply: 2.43 µM

Ask: # value lookup — system OVCAR-4 ovarian, readout TGI, item C/C(=N\NC(N)=S)c1ccc(C2CCCCC2)cc1
Reply: 38.4 µM

Ask: # value lookup — system OVCAR-4 ovarian, readout TGI, item CCOC(=O)C(C(=O)COC(C)(C)C)[C@@H]1C=C[C@H](OC(C)=O)C1 (stereo partly specified)
Reply: > 100 µM

Ask: # value lookup — system OVCAR-4 ovarian, readout TGI, item NS(=O)(=O)c1ccc(N=Nc2ccc(O)c(C(=O)O)c2)cc1
Reply: > 100 µM

Ask: # value lookup — system OVCAR-4 ovarian, readout TGI, item Nc1cc2c3c(cccc3c1)C(=O)N(c1ccc(OCCN3CCCC3)cc1)C2=O
Reply: 33.8 µM

Ask: # value lookup — system OVCAR-4 ovarian, readout TGI, item COc1cccc(NC2=C(Cl)C(=O)N(Cc3ccc(Cl)cc3)C2=O)c1
Reply: > 71.5 µM
